targetEntity: VEGF
Sequence (P15692 whole entry): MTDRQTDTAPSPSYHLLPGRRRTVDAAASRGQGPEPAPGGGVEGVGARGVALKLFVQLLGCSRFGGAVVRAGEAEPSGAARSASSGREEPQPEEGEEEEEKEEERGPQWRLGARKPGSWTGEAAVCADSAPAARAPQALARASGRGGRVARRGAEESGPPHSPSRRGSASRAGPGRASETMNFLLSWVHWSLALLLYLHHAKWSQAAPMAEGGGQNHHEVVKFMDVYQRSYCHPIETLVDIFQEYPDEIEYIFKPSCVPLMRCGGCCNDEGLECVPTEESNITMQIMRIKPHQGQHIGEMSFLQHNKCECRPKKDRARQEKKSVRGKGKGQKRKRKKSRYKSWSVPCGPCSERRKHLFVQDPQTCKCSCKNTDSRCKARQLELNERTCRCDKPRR
methodSummary: cell-based or functional assay
experimentalReadout: HUVEC Erk phosphorylation, % inhibition (%)
Just the number please, in %, no unit attached.

Given item VEGFBII024 (VHH, not shown: small tags and cut ends) EVQLVESGGGLVQTGDSLRLSCEVSGRTFSSYSMGWFRQAQGKEREFVVAISKGGYKYDSVSLEGRFTISKDNAKNTVYLQINSLKPEDTAVYYCASSRAYGSSRLRLADTYEYWGQGTQVTVSSGGGGSGGGGSGGGGSGGGGSGGGGSGGGGSGGGGSGGGGSEVQLVESGGGLVQAGGSLRLSCTASGSAFKSYRMGWFRRTPGKEDEFVASISWTYGSTFYADSVKGRFTMSRDKAKNAGYLQMNSLKPEDTALYYCAAGAQSDRYNIRSYDYWGQGTQVTVSS , the value recorded as its HUVEC Erk phosphorylation, % inhibition is 94
